- Measurement Protocol: HUVEC growth inhibition – cell-based, human, primary screen (AID 575);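 also: 100% = median of untreated cell wells with 0.1% DMSO on each plate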
- Applied Conditions: HUVEC proliferation, CellTiter-Glo luminescence, 72 h; at 10 µM; stronger effect = lower value
Hi there, I'd appreciate the recorded viability for every entry that follows.
Give bare numbers, in %.

Molecule	Unit Symbol	viability
CCCCNC(=O)CN(C1CCCCC1)S(C)(=O)=O	%	101

I'm hoping you can list viability for every molecule here, please.
1. COc1cc2c(cc1OC)-c1cc(Nc3ccc4c(c3)OCCO4)nc(=O)n1CC2
2. Cc1n[nH]c(C)c1S(=O)(=O)N1CCCCCC1
3. CC(C)(C)OC(=O)N1CCC(C(=O)N2CCCCCC2)CC1

Result:
1. 63.2
2. 105
3. 102

###

- Measurement Protocol: growth suppression of beta-catenin knockout HCT116, pilot screen, human colon tumor cells (AID 823);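 also: 0% = wells killed by 20 µM Hyamine and 100% = untreated DMSO cell wells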
- Applied Conditions: CellTiter-Glo, 60 h, at 10 µM, stronger effect = lower value
Records with an inconclusive call do not appear.
Mark Condition met only when viability stays strictly below 90%. Values equal to the cut-off are Condition not met.

Past entries and their recorded results:
Compound	Group Label
O=C(CSc1nnc(COc2ccccc2)o1)Nc1nccs1	Condition not met
COCCNC(=O)CS(=O)Cc1nc(-c2ccc(OC)cc2)oc1C (centres undefined)	Condition not met
Cc1ccccc1-c1noc(-c2cccs2)n1	Condition not met
CC1=CCC2C(=O)N(c3ccc(C)c(Br)c3)C(=O)C2C1 (centres undefined)	Condition not met
CCCN(CCC)S(=O)(=O)c1cc(Br)cc2c1N(C(=O)CC)CC2	Condition met
Cc1cc(NC(=O)CSCc2nc(-c3cccc(Cl)c3)oc2C)no1	Condition not met
CC1(C)SCC2C(=O)N3C(CSC3(C)C)C(=O)N21 (centres undefined)	Condition not met
COc1ccc(-c2cn3c(C)c(C(=O)N4CCN(c5ccc(OC)cc5)CC4)sc3n2)cc1	Condition not met
CC(=O)NC1(NC(C)=O)CCN(C)C(c2ccccc2)C1C (centres undefined)	Condition not met
CN1CCN(Cc2c(O)ccc3c(=O)c(Oc4ccccc4Cl)c(C(F)(F)F)oc23)CC1	Condition not met

Q: is_below(viability, 90%) for `CCN1CCN(C(=O)C2CCN(S(=O)(=O)c3cccc4cccnc34)CC2)CC1` ?
Result: Condition not met

Q: Strictly below 90%: is that where viability of `CC(C)Cc1cc(-c2ccco2)c(C#N)c(N)n1` sits?
Result: Condition met

###

- Measurement Protocol: reducers of endogenous Her2 protein level, primary screen, SKBR3 breast tumor cells, AlphaScreen, ATP viability (AID 461);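 also: percent of carrier control wells set as 100% viability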
- Applied Conditions: 18-24 h, measured here: SKBR3 viability, ATP luminescence, at 10 µM
Value Type: viability (%)
Answers are plain numbers, in %.

Compound	Unit Symbol	viability
C[C@]12CCC(=O)C=C1CC[C@@H]1[C@@H]2CC[C@@]2(C)[C@H]1CC[C@]2(O)C(=O)CO	%	99
O=C(NCCCN1CCN(CCCNC(=O)c2ccc(F)cc2)CC1)c1ccc(F)cc1	%	92.5
CCC(=O)N1CCNC(=O)C1CC(=O)Nc1ccc(C)c(Cl)c1 (centres undefined)	%	97

Would you mind giving viability for every compound in the list below?
1. CCCOc1ccc(N2C(=O)C3ON(c4ccccc4)C(c4ccc(O)c(OC)c4)C3C2=O)cc1 (centres undefined)
2. COC(=O)c1ccccc1NC(=O)CC(NCc1ccccc1)C(=O)O (centres undefined)
3. CN(C)c1cccc2c(S(=O)(=O)Nc3ccccn3)cccc12
4. CC(=O)NCCOc1cccc(OCCNC(C)=O)c1
5. CCC(=O)N1CCc2cc(Br)cc(S(=O)(=O)N3CCCCCC3)c21
6. Cn1c(=O)c2c(nc(Br)n2CCSc2ncccn2)n(C)c1=O

Result:
106
102
96.5
94.5
88.5
98

###

Would you kindly list inhibition for each of these compounds?
- Measurement Protocol: 384-well plate pilot, post-Golgi transport modulator project, inhibition of yeast transport mutant growth (AID 636)
- Applied Conditions: absorbance 615 nm, about 18 h, stronger effect = higher value
Numbers only, in %.

Compound	Unit Symbol	inhibition
CN(C)S(=O)(=O)c1ccc(Oc2ccc(S(=O)(=O)N(C)C)cc2)cc1	%	-2.4
CN(Cc1ccccc1)c1nc2c(c(=O)[nH]c(=O)n2C)n1Cc1ccccc1Cl	%	-5.2
COc1ccc(C2CC(C(F)(F)F)n3ncc(C(=O)NCc4cccnc4)c3N2)cc1OC (configuration not stated)	%	-4.47
Cc1ccc(SCc2[nH]nc3c2C(c2ccc(C)o2)C(C#N)=C(N)O3)cc1 (configuration not stated)	%	-7.03

Give measured inhibition for every item shown.
1. Cc1nc2ccc(NC(=O)N3CCC(c4ccccc4)C3)cc2nc1C (configuration not stated)
2. COC(=O)CSc1cc(C)nc(NC(C)=O)n1
3. COc1cc(C(=O)OCC(=O)N(C)Cc2ccccc2)cc(OC)c1OC

Result:
1: -4.21; 2: -3.92; 3: -5.34

###

Please respond with reported inhibition for every item in the list.
- Measurement Protocol: inhibitors of the yeast RAM network, pilot screen, dse1pr::URA3 reporter, 5-FOA selection (AID 869);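 also: 0% = DMSO wells with no growth and 100% = 10 µM 1-NA-PP1 with full growth; RAM network block rescues cells from 5-FOA so hits raise OD615 growth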
- Applied Conditions: S. cerevisiae dse1pr::URA3 5-FOA growth, OD615, 2 d; at 10 µM; stronger effect = higher value; strain carries analog-sensitive mutant Cbk1 kinase
One number for each entry, in %.

As a guide, the following entries are already answered.
Compound	inhibition / %
Cn1c(C(=O)N2CCN(c3ncccn3)CC2)cc2c(=O)n(C)c3ccccc3c21	1.92
c1cncc(-c2nnc(SCc3cccc4ccccc34)o2)c1	1.16

Return reported inhibition values for all items listed beneath this line.
1. COc1ccc(OC)c(CCNC(=O)C2CCN(c3nnc(-n4cccc4)s3)CC2)c1
2. COc1ccccc1CNC(=O)CCS(=O)(=O)c1cccs1
3. O=C(Nc1ccccc1O)c1ccccc1O
4. COc1ccc(OC)c(-c2nnc(NC(=O)C(C)Sc3nncn3C)s2)c1 (stereo not drawn)
5. CCn1c(=O)c(=O)[nH]c2cc(C(=O)NC3CCCc4ccccc43)ccc21 (stereo not drawn)
6. Cc1ccc(C)c(C(=O)CSc2n[nH]c(C)n2)c1

Result:
[4.26, 1.43, -0.42, 0.65, 1.7, 1.77]

Dear reader, for each entry below, please note its inhibition.
1. CCOc1ccccc1NC(=O)N1CCCC1C(=O)Nc1ccc(-n2cnnn2)c(C)c1 (stereo not drawn)
2. CN(C)CCCNC(=O)CC(c1ccc(F)cc1)c1ccco1 (stereo not drawn)
3. NC(=O)c1ccsc1NC(=O)c1ccc(S(=O)(=O)N2CCCCC2)cc1
4. COc1ccc(C/C(O)=C(\C#N)c2nc3ccccc3[nH]2)cc1OC
5. CN1CCN(CCCNC(=O)c2cc3c(=O)n(C)c4ccccc4c3s2)CC1
6. Cc1ccccc1-c1ccc(Nc2ccc(N3CCOCC3)cc2)nn1
7. O=C1CC(N2CCN(C/C=C/c3ccccc3)CC2)C(=O)N1CCc1ccccc1 (stereo not drawn)
8. O=C(NCc1cccc(F)c1)c1noc2c1CCCC2

Result:
[1.86, 0.69, 1.47, 0.175, 0.835, 0.46, 1.02, 0.33]

Give inhibition for each of the items listed below.
1. O=C(c1ccc(CN2CCOCC2)cc1)N1CCC(Cc2ccccc2)CC1
2. COc1ccccc1C1(CC(=O)O)CCOC(C)(C)C1 (stereo not drawn)

Result:
1.29
0.095

###

- Measurement Protocol: HUVEC growth inhibition – cell-based, human, primary screen (AID 575);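 also: 100% = median of untreated cell wells with 0.1% DMSO on each plate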
- Applied Conditions: HUVEC proliferation, CellTiter-Glo luminescence, 72 h; at 10 µM; stronger effect = lower value
Value Type: viability (%)
Numbers only, in %.

Some entries whose results are on file:
Compound	Unit Symbol	viability
CCC(C)(C(=O)NC1CCCC1)N(C(=O)c1cnccn1)c1c(C)n(C)n(-c2ccccc2)c1=O (stereo unspecified)	%	94.4
Cc1ccc(C(=O)NCc2ccc3c(c2)OCO3)cc1S(=O)(=O)N1CCCCC1	%	96.6
CCOC(=O)N1CCN(c2c(N3CCc4ccccc4C3)c(=O)c2=O)CC1	%	99.9
CCNC(=O)C1CC(=O)N(Cc2ccc3c(c2)OCO3)C(=Nc2ccc(F)cc2)S1 (stereo unspecified)	%	85.6
CC1=C(C(=O)Nc2ccccc2)C(c2ccco2)C(C#N)=C(SCC(=O)Nc2cccc(C)c2C)N1 (stereo unspecified)	%	77.1
OC(CCN1CCCCC1)(c1ccccc1)C1CCCCC1 (stereo unspecified)	%	84.9
CCOC(=O)N1CCC(NC(=O)CS(=O)(=O)Cc2nc(-c3ccccc3C)oc2C)CC1	%	114
COC(=O)c1[nH]c2cc(OC)ccc2c1NC(=O)CN1CCOCC1	%	95

State the recorded viability for every item in the following list.
1. Cc1cc(C)c2c(CC(=O)NCc3ccco3)coc2c1
2. Cc1ccc(/C=N/n2nnnc2N)o1
3. Cc1ccc(NC(=O)CCC(=O)O)cc1F

Result:
1. 71.3
2. 111
3. 88.8

###

- Measurement Protocol: Restrictive medium S. cerevisiae growth inhibition, OD615, pilot screen of yeast lifespan reduction project, restrictive growth control (AID 706);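 also: modified DeaD lifespan yeast strain shifted to restrictive glucose medium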
- Applied Conditions: OD615, 48 h, at 10 µM, stronger effect = higher value
Can you tell me growth inhibition for the items I'm about to list?
Numbers only, in %.

Solved cases below.
Compound	growth inhibition (%)
c1ccc(C(Cc2nc(-c3cccnc3)no2)c2ccccc2)cc1	-4.57
COc1cccc(NC(=O)Nc2nnc(N3CCCCC3C)s2)c1 (centres undefined)	-11.5
CCN(CC)S(=O)(=O)c1ccc2oc(C(=O)NCC3COc4ccccc4O3)c(C)c2c1 (centres undefined)	1.48
O=C1c2ccccc2N2C(=O)c3ccccc3C2N1Cc1ccco1 (centres undefined)	-5.68
COc1ccc(Nc2ccc3c(c2)=NC2(CCCCC2)[N+]=3[O-])cc1	-11.8
CC1CCCN(Cc2nc3c(c(=O)n(C)c(=O)n3C)n2Cc2cccc3ccccc23)C1 (centres undefined)	-2.08

List the reported growth inhibition of each compound below.
1. CCc1ccc(NC(=O)CSc2nnc(Cn3c(=O)sc4ccccc43)n2C)cc1
2. COc1ccc(NS(=O)(=O)c2cccc(-c3nnc4n3CCCCC4)c2)cc1
3. Nc1cc(-c2cccc(F)c2)nn1S(=O)(=O)c1cccc2nsnc12
4. O=C(NCc1cccnc1)NC1(c2ccccc2)CC1
5. c1ccc(OCCOCCSc2ncccn2)cc1
6. COc1ccc(OC)c(N(CC(=O)NCCSc2ccccc2)S(C)(=O)=O)c1
7. N#C/C(=C(/O)CN1C(=O)c2ccccc2C1=O)c1nc2ccccc2[nH]1

Result:
1: -25.2; 2: 10.2; 3: -7.52; 4: -17.7; 5: -1.09; 6: -9.71; 7: -4.08

Hi team, please reply with growth inhibition for each item in this list.
1. COc1ccc(-c2nc(N3CCOCC3)nc3n[nH]c(N)c23)cc1
2. CCOc1ccc(C2CC(c3ccc(CC)cc3)Nc3nc(N)nn32)cc1 (centres undefined)
3. COc1ccc(OC)c(NC(=O)NC2(C(F)(F)F)Oc3ccccc3O2)c1
4. CCOc1cccc(OCCOCCN(C)Cc2ccccc2)c1

Result:
1. 14.9
2. 21.5
3. 0.635
4. -3.23

I need growth inhibition for every entry listed below, if you could help.
1. CCOC(=O)N1CCN(C(=O)CN(c2ccc(Cl)c(C(F)(F)F)c2)S(C)(=O)=O)CC1
2. COCCNC(=O)NC1(C(F)(F)F)Oc2ccc(Cl)cc2O1 (centres undefined)

Result:
1. -17.2
2. -0.285

src = PubChem BioAssay
